// provenance: patent US20250320227A1

tested-target: human recombinant OX2 (hOX2) receptors expressed in CHO cells (Homo sapiens)
test-description: IP-1 accumulation assay (IP-One HTRF) in hOX2-CHO cells
details: 60 min incubation at 37° C., mean of at least two independent experiments, read-out: EC50_OX2R Category
property-measured: EC50

// known answers, use as guide
molecule | property-measured | endpoint-result
O=C1COC[C@]2(CCN3C(=O)C4(CC4)COc4cccc(F)c4[C@H]4CC[C@H](CC4)OC[C@@H]32)N1 (single isomer, unassigned) [Example 73a] | EC50 | 1 to 10 µM
O=C1COC[C@@]2(CCCN3C(=O)CCCCOc4cccc(n4)[C@H]4CC[C@H](CC4)OC[C@H]32)N1 (single isomer, unassigned) [Example 76b] | EC50 | < 0.1 µM
O=C1COC[C@]2(CCCN3C(=O)CCOc4ccccc4[C@H]4CC[C@H](CC4)OC[C@@H]32)N1 (single isomer, unassigned) [Example 33b] | EC50 | 0.1 to 1 µM
O=C1COCC2(CCCN3C(=O)OCCc4ccccc4[C@H]4CC[C@H](CC4)OCC32)N1 (mixture of isomers) | EC50 | 1 to 10 µM
O=C1COCC2(CCCN3C(=O)CCOc4ccc(F)cc4[C@H]4CC[C@H](CC4)OCC32)N1 (mixture of isomers) | EC50 | < 0.1 µM
CC1CC2(COCC(=O)N2)C2COC3CCC(CC3)c3ccncc3OCCC(=O)N12 (single isomer, unassigned) [Example 75] | EC50 | > 10 µM
O=C1COC[C@]2(CCCN3C(=O)COc4nccc(F)c4[C@H]4CC[C@H](CC4)OC[C@@H]32)N1 (single isomer, unassigned) [Example 46b] | EC50 | 1 to 10 µM
C[C@@H]1C[C@@]2(COCC(=O)N2)[C@@H]2CO[C@H]3CC[C@H](CC3)c3cccnc3OCC(=O)N12 (single isomer, unassigned) [Example 23a] | EC50 | 0.1 to 1 µM

Could you tell me EC50 for each of these molecules? They are listed below.
1. O=C1COC[C@]2(CCCN3C(=O)COc4ncccc4[C@H]4CC[C@H](CC4)OC[C@@H]32)N1 [Example 45b]
2. O=C1COCC2(CCCN3C(=S)COc4ccccc4[C@H]4CC[C@H](CC4)OCC32)N1 (stereo partly shown)
3. C[C@@H]1C[C@]2(COCC(=O)N2)[C@H]2CO[C@H]3CC[C@H](CC3)c3cc(Cl)ccc3OCC(=O)N12 (single isomer, unassigned) [Example 21b]

Result:
["> 10 µM", "1 to 10 µM", "> 10 µM"]

Could you tell me EC50 for each of these molecules? They are listed below.
1. O=C1COC[C@]2(CCCN3C(=O)OCCCOc4cccc(c4)[C@H]4CC[C@H](CC4)OC[C@@H]32)N1 (single isomer, unassigned) [Example 54b]
2. C[C@@H]1C[C@]2(COCC(=O)N2)[C@H]2CO[C@H]3CC[C@H](CC3)c3cc(F)cc(F)c3OCCC(=O)N12 [Example 25b]

Result:
1: 1 to 10 µM; 2: < 0.1 µM

###

For each of the compounds below, state its EC50.
tested-target: human recombinant OX2 (hOX2) receptors expressed in CHO cells (Homo sapiens, UniProt O43614)
Sequence (O43614 1-444): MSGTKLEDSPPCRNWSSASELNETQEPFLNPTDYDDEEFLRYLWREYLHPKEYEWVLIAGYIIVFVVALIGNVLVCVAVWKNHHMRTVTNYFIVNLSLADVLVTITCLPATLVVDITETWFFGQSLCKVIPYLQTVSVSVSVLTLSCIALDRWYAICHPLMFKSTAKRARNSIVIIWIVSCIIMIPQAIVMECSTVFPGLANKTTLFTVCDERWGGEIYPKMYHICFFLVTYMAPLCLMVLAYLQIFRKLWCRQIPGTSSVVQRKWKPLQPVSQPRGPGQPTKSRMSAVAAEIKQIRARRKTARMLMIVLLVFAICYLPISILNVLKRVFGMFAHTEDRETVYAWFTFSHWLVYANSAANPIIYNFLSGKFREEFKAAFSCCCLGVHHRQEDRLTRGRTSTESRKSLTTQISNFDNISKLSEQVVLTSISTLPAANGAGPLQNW
test-description: IP-1 accumulation assay (IP-One HTRF) in hOX2-CHO cells
details: 60 min incubation at 37° C., mean of at least two independent experiments, read-out: EC50_OX2R Category

// known answers, use as guide
compound | endpoint-result
C[C@@H]1C[C@@]2(COCC(=O)N2)[C@@H]2CO[C@H]3CC[C@H](CC3)c3cc(F)ccc3OCC(=O)N12 (single isomer, unassigned) [Example 18a] | < 100 nM
O=C1COCC2(CCCN3C(=O)CCOc4ccccc4[C@H]4CC[C@H](CC4)OCC32)N1 (stereo partly drawn) | < 100 nM
O=C1COC[C@@]2(CCN3C(=O)CCOc4ccccc4[C@H]4CC[C@H](CC4)OC[C@H]32)N1 (single isomer, unassigned) | < 100 nM
C[C@@H]1C[C@@]2(COCC(=O)N2)[C@@H]2CO[C@H]3CC[C@H](CC3)c3cc(F)cc(F)c3OCC(=O)N12 (single isomer, unassigned) [Example 16a] | < 100 nM
O=C1COCC2(CCCN3C(=O)CCOc4cccnc4[C@H]4CC[C@H](CC4)OCC32)N1 (mixture of isomers) | > 10000 nM

Could you tell me EC50 for each of these compounds? They are listed below.
1. CC1COc2ccccc2[C@H]2CC[C@H](CC2)OCC2N(CCC23COCC(=O)N3)C1=O (stereo partly drawn)
2. C[C@@H]1C[C@@]2(COCC(=O)N2)[C@@H]2CO[C@H]3CC[C@H](CC3)c3ccc(F)cc3OCC(=O)N12 (single isomer, unassigned) [Example 19a]
3. O=C1COC[C@]2(CCCN3C(=O)COc4ccc(F)c(F)c4[C@H]4CC[C@H](CC4)OC[C@@H]32)N1 (single isomer, unassigned) [Example 43b]
4. C[C@@H]1C[C@]2(COCC(=O)N2)[C@H]2CO[C@H]3CC[C@H](CC3)c3cc(F)ccc3OCC(=O)N12 (single isomer, unassigned) [Example 18b]

Result:
100 to 1000 nM
< 100 nM
> 10000 nM
> 10000 nM

###

tested-target: human recombinant OX2 (hOX2) receptors expressed in CHO cells (Homo sapiens, UniProt O43614)
Sequence (O43614 1-444): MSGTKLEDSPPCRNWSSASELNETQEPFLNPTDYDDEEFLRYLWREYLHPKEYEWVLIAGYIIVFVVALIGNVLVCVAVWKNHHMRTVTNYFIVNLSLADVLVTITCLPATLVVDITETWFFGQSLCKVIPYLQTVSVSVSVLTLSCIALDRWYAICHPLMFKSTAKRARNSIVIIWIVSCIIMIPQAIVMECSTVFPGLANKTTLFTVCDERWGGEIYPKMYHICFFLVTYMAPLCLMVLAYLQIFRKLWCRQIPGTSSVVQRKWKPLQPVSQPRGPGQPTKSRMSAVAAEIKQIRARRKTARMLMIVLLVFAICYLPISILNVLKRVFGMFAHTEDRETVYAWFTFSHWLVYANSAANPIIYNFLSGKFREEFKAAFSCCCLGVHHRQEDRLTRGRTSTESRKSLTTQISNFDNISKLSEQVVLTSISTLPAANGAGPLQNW
test-description: IP-1 accumulation assay (IP-One HTRF) in hOX2-CHO cells
details: 60 min incubation at 37° C., mean of at least two independent experiments, read-out: EC50_OX2R Category
pEC50: −log10 of the molar value.
property-measured: pEC50

// known answers, use as guide
molecule | property-measured | endpoint-result
C[C@H]1COc2ccccc2[C@H]2CC[C@H](CC2)OC[C@H]2N(CC[C@]23COCC(=O)N3)C1=O (single isomer, unassigned) [Example 5b] | pEC50 | < 5.00
O=C1COCC2(CCN3C(=O)C4(CC4)COc4ccccc4[C@H]4CC[C@H](CC4)OCC32)N1 (mixture of isomers) [Example 7] | pEC50 | 5.00 to 6.00
CC1Oc2ccccc2[C@H]2CC[C@H](CC2)OCC2N(CCCC23COCC(=O)N3)C1=O (stereo partly shown) [Example 35] | pEC50 | > 7.00

Could you tell me pEC50 for each of these molecules? They are listed below.
1. CC1CC2(COCC(=O)N2)C2COC3CCC(CC3)c3ccncc3OCCC(=O)N12 (single isomer, unassigned) [Example 74]
2. O=C1N[C@]2(CCCN3C(=O)COc4ccccc4[C@H]4CC[C@H](CC4)OC[C@H]32)COC1F (single isomer, unassigned) [Example 56a]
3. C[C@@H]1C[C@]2(COCC(=O)N2)[C@H]2CO[C@H]3CC[C@H](CC3)c3ccccc3OCCC(=O)N12 (single isomer, unassigned) [Example 13b]
4. O=C1COCC2(CCN3C(=O)COc4ccccc4[C@H]4CC[C@H](CC4)OCC32)N1 (mixture of isomers) [Example 3]

Result:
["> 7.00", "> 7.00", "6.00 to 7.00", "5.00 to 6.00"]

Could you tell me pEC50 for each of these molecules? They are listed below.
1. O=C1COC[C@]2(CCCN3C(=O)CCOc4c(F)cc(F)cc4[C@H]4CC[C@H](CC4)OC[C@@H]32)N1 (single isomer, unassigned) [Example 50b]
2. O=C1COCC2(CCCN3C(=O)CCCOc4ccccc4[C@H]4CC[C@H](CC4)OCC32)N1 (stereo partly shown) [Example 34]
3. O=C1COCC2(CCCN3C(=O)COCc4ccccc4[C@H]4CC[C@H](CC4)OCC32)N1 (stereo partly shown) [Example 55]
4. O=C1COCC2(CCCN3C(=O)CCCCc4ccccc4-c4cccc(c4F)CC32)N1 (racemic) [Example 62]
5. C[C@@H]1CC2(COCC(=O)N2)C2CO[C@H]3CC[C@H](CC3)c3ccccc3OCCCC(=O)N21 (mixture of isomers) [Example 14]

Result:
1. 6.00 to 7.00
2. > 7.00
3. 5.00 to 6.00
4. < 5.00
5. > 7.00
